system: U-251; test: NCI tumour cell line growth inhibition, 48 h
Calls of active or inactive are those of the source. No stated cut-off is given here; in the data, active = GI50 up to about 1.1 µM and inactive = higher.
A correct response names exactly one class from active, inactive

compound=Cc1cccc2c(=O)c3c(O)cc4c(c3n(C)c12)C=CC(C)(C)O4 experimental_target=U-251 discrete_label=inactive

## Task Just curious, what result did CCOC(=O)Oc1c(OC)cc(C(=O)NC2CCc3cc(OC)c(OC)c(OC)c3-c3ccc(SC)c(=O)cc32)cc1OC (stereo not given) get here?
## Result active

## Task And for "NNC(=O)c1ccc(-n2nnc(C(=O)NN)c2C(=O)NN)cc1" ?
## Result inactive

## Task And for CCCC1C(=O)CCc2c(OC)ccc(OC)c21 (stereo not given) ?
## Result inactive

## Task And for Nc1ccn(C2CCC(CO)O2)c(=S)n1 (stereo not given) ?
## Result inactive

###

test system: HT-29; assay: NCI tumour cell line growth inhibition, 48 h
The source made the active and inactive calls. Cut-off read from the data, not from the text of the source: active = GI50 up to about 1.1 µM and inactive = higher.
property: GI50

The following compounds have reported results that may help.
compound=COc1ccc(/C(C)=N/NC(=S)N(C)C)c(O)c1 experimental_target=HT-29 result="3.8 µM (inactive)"
compound=N#CC(c1ccccc1)(c1ccccc1)[C@@H](c1ccccc1)[C@H](Cc1ccccc1)NS(=O)(=O)c1ccccc1 experimental_target=HT-29 result="> 100 µM (inactive)"
compound="CCOP(=O)(OCC)C(Nc1ccc(Br)cc1)c1cccc([N+](=O)[O-])c1 (stereo not drawn)" experimental_target=HT-29 result="16.8 µM (inactive)"

## Task Need GI50, item CCCCCCCCCC[C@@H](O)[C@H]1CC[C@H]([C@H]2CC[C@H]([C@H](O)CCCCCCCCCC[C@@H]3CC(CC(C)=O)C(=O)O3)O2)O1 (stereo partly drawn)
## Result 4.41 µM (inactive)

## Task And for "O=C(O)/C(Cl)=C(\Cl)C(=O)c1ccccc1" ?
## Result > 100 µM (inactive)

## Task And for "Cc1cc(N(C)C)ccc1/N=N/c1ccc2ncccc2c1" ?
## Result 35.3 µM (inactive)

## Task And for C=C1C(=O)O[C@H]2C3C(=C(C)CC[C@@H]12)C(=O)[C@@H]1OC31C (stereo partly drawn) ?
## Result 1.66 µM (inactive)

###

tested on: HCT-15; experiment: NCI tumour cell line growth inhibition, 48 h
Below, each entry is listed alongside its reported GI50.

The following molecules have reported results that may help.
molecule=COc1ccc(Cn2nc(OCc3ccccn3)c3cc([N+](=O)[O-])ccc32)cc1 property=GI50 result="> 100 µM"
molecule=CCOC(=O)C1CSCCSC1 property=GI50 result="> 100 µM"
molecule=Cc1cc(C)nc(NS(=O)(=O)c2ccc(NC(=O)c3cccc4c(=O)c5ccccc5[nH]c34)cc2)n1 property=GI50 result="19.7 µM"
molecule=COc1cc(OC)c(NC2=NCCO2)cc1Cl property=GI50 result="33.9 µM"

## Task Need GI50, item "CCN(C(=O)/C=C/c1ccco1)c1ccccc1"
## Result > 100 µM

## Task And for O=C(Cn1ccnc1[N+](=O)[O-])NCCO [ETANIDAZOLE] ?
## Result > 100 µM

## Task And for "CC(=O)c1ccccc1NS(=O)(=O)c1ccc2nc(C)n(NS(=O)(=O)c3ccccc3C(C)=O)c(=O)c2c1" ?
## Result > 100 µM
